src = patent US10307413B2

# System: Z-138 cell line
# Protocol Text: Z-138 Proliferation Assay (Cell Titer Glo, 5 days)
# Assay type: cell-based
# Assay Setup: Homo sapiens, 120 h; Z-138 cells, 5 days, Cell Titer Glo; read-out: Proliferation EC50
Please provide measured EC50 for the entries that follow.

# input // EC50 lookup, key: CC(NC(=O)c1cc(NC2COC2)ncn1)[C@@H](O)CN1CCc2ccccc2C1 (stereo partly shown)
# output 1 to 10 µM

# input // EC50 lookup, key: `COCCN(C)c1cc(C(=O)NC[C@H](O)CN2CCc3ccccc3C2)cc(NC2CCN(C(C)=O)CC2)n1`
# output < 0.1 µM

# input // EC50 lookup, key: `CN(C)C(=O)[C@H]1CC[C@@H](Nc2cc(C(=O)NC[C@H](O)CN3CCc4ccccc4C3)ncn2)CC1`
# output 1 to 10 µM

# input // EC50 lookup, key: `NC(=O)[C@H]1CC[C@@H](Nc2cc(C(=O)NC[C@H](O)CN3CCc4ccccc4C3)ncn2)CC1`
# output 1 to 10 µM

---

# System: Z-138 cell line
# Protocol Text: Z-138 Proliferation Assay (Cell Titer Glo, 5 days)
# Assay type: cell-based
# Assay Setup: Homo sapiens, 120 h; Z-138 cells, 5 days, Cell Titer Glo; read-out: Proliferation EC50
pEC50: −log10 of the molar value.
Endpoint: pEC50

# input // pEC50 lookup, key: `CC(=O)N1CCC(Nc2cc(C(=O)NC[C@H](O)CN3CCc4ccccc4C3(C)C)ncn2)CC1`
# output < 5.30

# input // pEC50 lookup, key: `O=C(NC[C@H](O)CN1CCc2ccccc2C1)C1=CC2=N[C@@H](CO)CN2C=N1`
# output < 5.30

# input // pEC50 lookup, key: `CC(=O)N1CCC(Nc2cc(C(=O)NC[C@H](O)CN3CCc4ccccc4C3)cc(OCCN(C)C)n2)CC1`
# output > 7.00

# input // pEC50 lookup, key: `O=C(NC[C@H](O)CN1CCc2ccccc2C1)c1cccc(NC2COC2)n1`
# output 5.00 to 6.00

# input // pEC50 lookup, key: `CCC(=O)N1CC(Nc2cc(C(=O)NC[C@H](O)CN3CCc4ccccc4C3)ncn2)C1`
# output > 7.00

# input // pEC50 lookup, key: `CC(=O)N1CC(Nc2cc(C(=O)NC[C@H](O)CN3CCc4ccccc4C3)cnn2)C1`
# output 5.00 to 6.00

# input // pEC50 lookup, key: `CC(=O)N1CCC(Nc2cc(C(=O)NC[C@H](O)CN3CCc4cc(C)ccc4C3)ncn2)CC1`
# output 6.00 to 7.00

# input // pEC50 lookup, key: `CC(=O)N1CCC(Nc2cc(C(=O)NCCCN3CCc4ccccc4C3)ccn2)CC1`
# output 5.00 to 6.00

# input // pEC50 lookup, key: `CNCCN(C)c1nc(NC2COC2)cc(C(=O)NC[C@H](O)CN2CCc3ccccc3C2)n1`
# output 6.00 to 7.00

# input // pEC50 lookup, key: CC(=O)N1CCC(Nc2cc(C(=O)NCC(F)CN3CCc4ccccc4C3)ncn2)CC1 (stereo not drawn)
# output < 5.30

# input // pEC50 lookup, key: O=C(NC[C@H](O)CN1CCc2ccccc2C1)C1=CC2=NC(CO)CN2C=N1 (stereo partly drawn)
# output < 4.70

# input // pEC50 lookup, key: `Cc1c(NC2COC2)ncnc1C(=O)NC[C@H](O)CN1CCc2ccccc2C1`
# output 5.00 to 6.00

# input // pEC50 lookup, key: CC(=O)N1CCC(Nc2cc(C(=O)NC(C)C(O)CN3CCc4ccccc4C3)ncn2)CC1 (stereo not drawn)
# output 6.00 to 7.00

# input // pEC50 lookup, key: `Nc1cc(C(=O)NC[C@H](O)CN2CCc3ccccc3C2)ncn1`
# output 4.30 to 5.00

# input // pEC50 lookup, key: `CCC(=O)N1CC(Nc2cc(C(=O)NC[C@H](O)CN3CCc4ccccc4C3)ccn2)C1`
# output > 7.00

# input // pEC50 lookup, key: `CN(C)c1nc(NC2CNC2)cc(C(=O)NC[C@H](O)CN2CCc3ccccc3C2)n1`
# output 6.00 to 7.00

# input // pEC50 lookup, key: `O=C(NC[C@H](O)CN1CCc2ccccc2C1)c1cc(NC2CNC2)nc(N2CCOCC2)n1`
# output 5.00 to 6.00

# input // pEC50 lookup, key: `O=C(NC[C@H](O)CN1CCc2ccccc2C1)c1ncnc(NC2COC2)c1F`
# output 5.00 to 6.00

---

# Assayed Target: PRMT5/MEP50 (Homo sapiens (Human))
# Protocol Text: PRMT5 Biochemical Assay (PRMT5/MEP50 enzyme assay on peptide substrate, 3H-SAM Flashplate)
# Assay Setup: PRMT5 biochemical assay
Endpoint: IC50

# input // IC50 lookup, key: CN[C@H]1CC[C@@H](Nc2cc(C(=O)NC[C@H](O)CN3CCc4ccccc4C3)ncn2)CC1 [Compound 630]
# output < 100 nM

# input // IC50 lookup, key: O=C(NC[C@H](O)CN1CCc2ccccc2C1)c1cc(NC2CC3(COC3)C2)ncn1 [Compound 557]
# output < 100 nM

# input // IC50 lookup, key: O=C(NC[C@H](O)CN1CCc2ccccc2C1)c1cc(NC2COC2)ccn1 [Compound 435]
# output < 100 nM

# input // IC50 lookup, key: CN(CCO)c1nc(NC2COC2)cc(C(=O)NC[C@H](O)CN2CCc3ccccc3C2)n1 [Compound 495]
# output < 100 nM

# input // IC50 lookup, key: CC(O)(CNC(=O)c1cc(NC2CCNCC2)ncn1)CN1CCc2ccccc2C1 (centres unmarked) [Compound 647]
# output 1000 to 10000 nM

# input // IC50 lookup, key: CC(=O)N1CCC(Nc2cc(C(=O)NC[C@H](O)CN3Cc4ccccc4C(C)C3)ccn2)CC1 (some centres unmarked) [Compound 695]
# output > 10000 nM

# input // IC50 lookup, key: CCC(=O)N1CCC(Nc2cc(C(=O)NC[C@H](O)CN3CCc4ccccc4C3)ncn2)CC1 [Compound 406]
# output < 100 nM

# input // IC50 lookup, key: CN1CCC(Nc2cc(C(=O)NCC(C)(O)CN3CCc4ccccc4C3)ncn2)CC1 (centres unmarked) [Compound 648]
# output 1000 to 10000 nM

# input // IC50 lookup, key: COC(CNC(=O)c1ccnc(NC2CCN(C(C)=O)CC2)c1)CN1CCc2ccccc2C1 (centres unmarked) [Compound 691]
# output < 100 nM

# input // IC50 lookup, key: CC(=O)N1CCC(Nc2cc(C(=O)NCCCN3CCc4ccccc4C3)ncn2)CC1 [Compound 653]
# output < 100 nM

# input // IC50 lookup, key: CCCC(=O)N1CCC(Nc2cc(C(=O)NC[C@H](O)CN3CCc4ccccc4C3)ccn2)CC1 [Compound 468]
# output < 100 nM

---

# Assayed Target: PRMT5/MEP50 (Homo sapiens (Human), UniProt O14744)
# Sequence (O14744 other isoform, or with tags, fused parts or gaps): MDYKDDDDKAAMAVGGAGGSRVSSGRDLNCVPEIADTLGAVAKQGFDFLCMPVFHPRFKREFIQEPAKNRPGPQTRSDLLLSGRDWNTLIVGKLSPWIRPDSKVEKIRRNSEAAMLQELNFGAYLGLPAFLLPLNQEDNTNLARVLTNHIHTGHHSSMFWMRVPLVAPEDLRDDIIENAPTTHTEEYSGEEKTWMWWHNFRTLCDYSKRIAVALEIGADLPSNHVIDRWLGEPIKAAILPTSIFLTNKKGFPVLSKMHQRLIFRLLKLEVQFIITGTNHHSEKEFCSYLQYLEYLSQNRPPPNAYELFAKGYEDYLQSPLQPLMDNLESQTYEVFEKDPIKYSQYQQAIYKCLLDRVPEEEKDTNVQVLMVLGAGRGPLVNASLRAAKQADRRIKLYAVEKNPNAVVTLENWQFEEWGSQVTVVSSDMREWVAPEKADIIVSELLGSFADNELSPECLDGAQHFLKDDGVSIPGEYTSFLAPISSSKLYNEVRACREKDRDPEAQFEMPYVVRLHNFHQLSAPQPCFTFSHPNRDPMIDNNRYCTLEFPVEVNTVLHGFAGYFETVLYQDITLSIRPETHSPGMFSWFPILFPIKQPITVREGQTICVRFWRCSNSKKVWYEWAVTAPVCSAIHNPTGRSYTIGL
# Sequence (Q9BQA1 other isoform, or with tags, fused parts or gaps partner): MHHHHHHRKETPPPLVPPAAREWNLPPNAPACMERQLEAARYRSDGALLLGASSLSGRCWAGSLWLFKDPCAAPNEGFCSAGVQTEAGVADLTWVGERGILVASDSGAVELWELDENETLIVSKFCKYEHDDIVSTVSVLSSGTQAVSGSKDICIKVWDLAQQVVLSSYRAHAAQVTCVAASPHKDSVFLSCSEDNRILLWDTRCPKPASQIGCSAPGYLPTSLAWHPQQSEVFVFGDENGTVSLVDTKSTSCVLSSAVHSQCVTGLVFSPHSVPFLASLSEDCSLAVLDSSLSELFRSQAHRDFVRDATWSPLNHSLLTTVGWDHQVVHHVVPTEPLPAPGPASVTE
# Protocol Text: PRMT5 Biochemical Assay (PRMT5/MEP50 enzyme assay on peptide substrate, 3H-SAM Flashplate)
Please provide measured IC50 for the entries that follow.

# input // IC50 lookup, key: `CN(C)[C@H]1C[C@H](Nc2cc(C(=O)NC[C@H](O)CN3CCc4ccccc4C3)ncn2)C1`
# output < 0.1 µM

# input // IC50 lookup, key: `O=C(NC[C@H](O)CN1CCc2ccccc2C1)c1ccc(OCCCN2CCCC2)cc1`
# output < 0.1 µM

# input // IC50 lookup, key: `CC(C)NCCOc1ccc(C(=O)NC[C@H](O)CN2CCc3ccccc3C2)cc1`
# output < 0.1 µM

# input // IC50 lookup, key: NS(=O)(=O)c1cccc(C(=O)NCC(O)CN2CCc3ccccc3C2)c1 (centres unmarked)
# output 0.101 to 1 µM

# input // IC50 lookup, key: `Cc1cnc(NC2CN(S(C)(=O)=O)C2)cc1C(=O)NC[C@H](O)CN1CCc2ccccc2C1`
# output < 0.1 µM

# input // IC50 lookup, key: COc1cc(NC2CCOCC2)cc(C(=O)NCC(O)CN2CCc3ccccc3C2)c1 (centres unmarked)
# output 0.101 to 1 µM

# input // IC50 lookup, key: CN(C)C(=O)CNCCOc1cccc(C(=O)NCC(O)CN2CCc3ccccc3C2)c1 (centres unmarked)
# output 0.101 to 1 µM

# input // IC50 lookup, key: `Cc1cnc(NC2CNC2)cc1C(=O)NC[C@H](O)CN1CCc2ccccc2C1`
# output < 0.1 µM

# input // IC50 lookup, key: `CN(C)CCOc1ccc2cc(C(=O)NC[C@H](O)CN3CCc4ccccc4C3)ccc2c1`
# output < 0.1 µM

# input // IC50 lookup, key: CN1CCC(Nc2cccc(C(=O)NCC(O)CN3CCc4ccccc4C3)c2)C1 (centres unmarked)
# output < 0.1 µM

# input // IC50 lookup, key: `CN(C[C@H](O)CN1CCc2ccccc2C1)C(=O)c1ccnc(NC2CCOCC2)c1`
# output 0.101 to 1 µM

# input // IC50 lookup, key: `O=C(NC[C@H](O)CN1CCc2ccccc2C1)c1ccc(OCCN2CCC2)cc1`
# output < 0.1 µM

# input // IC50 lookup, key: `O=C(NC[C@H](O)CN1CCc2ccccc2C1)c1cc(N[C@H]2CCOC2)ncn1`
# output < 0.1 µM

# input // IC50 lookup, key: `O=C(NC[C@H](O)CN1CCc2ccccc2C1)c1ccnc(NC2COC2)c1`
# output < 0.1 µM

# input // IC50 lookup, key: `O=C(NC[C@H](O)CN1CCc2ccccc2C1)c1ccnc(Nc2cc[nH]n2)c1`
# output < 0.1 µM

# input // IC50 lookup, key: `O=C(NC[C@H](O)CN1CCc2ccccc2C1)c1ccc2[nH]nnc2c1`
# output < 0.1 µM

# input // IC50 lookup, key: NC(=O)c1cccc(C(=O)NCC(O)CN2CCc3ccccc3C2)c1 (centres unmarked)
# output 0.101 to 1 µM
